study.system: Serine/threonine-protein kinase 10 (Homo sapiens, UniProt O94804); also: in the data inactive means no Kd found up to 30 µM
Sequence (O94804 whole entry): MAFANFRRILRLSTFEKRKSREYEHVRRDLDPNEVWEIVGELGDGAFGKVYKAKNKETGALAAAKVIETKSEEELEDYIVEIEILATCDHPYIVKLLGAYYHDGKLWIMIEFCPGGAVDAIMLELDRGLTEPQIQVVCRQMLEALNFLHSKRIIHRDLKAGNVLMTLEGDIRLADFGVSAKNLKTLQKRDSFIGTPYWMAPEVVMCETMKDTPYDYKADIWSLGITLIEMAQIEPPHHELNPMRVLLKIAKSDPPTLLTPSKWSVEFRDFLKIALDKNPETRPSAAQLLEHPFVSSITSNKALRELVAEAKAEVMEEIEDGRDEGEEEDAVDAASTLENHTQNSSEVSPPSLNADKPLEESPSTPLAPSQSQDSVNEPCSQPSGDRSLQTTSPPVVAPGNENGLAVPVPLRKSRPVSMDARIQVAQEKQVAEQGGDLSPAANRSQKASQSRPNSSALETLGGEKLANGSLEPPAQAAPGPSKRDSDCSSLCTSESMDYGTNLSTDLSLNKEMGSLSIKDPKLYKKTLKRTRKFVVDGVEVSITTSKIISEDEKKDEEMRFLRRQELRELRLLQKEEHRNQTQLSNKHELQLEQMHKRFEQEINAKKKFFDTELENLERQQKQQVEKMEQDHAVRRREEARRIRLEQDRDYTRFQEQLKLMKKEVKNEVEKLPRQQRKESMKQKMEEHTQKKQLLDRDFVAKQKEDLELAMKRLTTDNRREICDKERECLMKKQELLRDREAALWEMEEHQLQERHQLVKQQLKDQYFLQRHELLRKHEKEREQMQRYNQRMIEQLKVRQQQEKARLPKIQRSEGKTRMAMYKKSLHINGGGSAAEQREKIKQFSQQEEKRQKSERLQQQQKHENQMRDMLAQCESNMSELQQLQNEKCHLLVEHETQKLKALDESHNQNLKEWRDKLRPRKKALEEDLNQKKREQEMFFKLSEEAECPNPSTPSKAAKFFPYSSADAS
Active and inactive are the calls of the source.
Could you please pick one outcome from this set? active, inactive

Worked examples follow.
O=C(O)c1ccc2c(c1)nc(Nc1cccc(Cl)c1)c1ccncc12	active
C=CCn1c(=O)c2cnc(Nc3ccc(N4CCN(C)CC4)cc3)nc2n1-c1cccc(C(C)(C)O)n1	inactive
C[C@]1(O)C[C@@H](c2nc(-c3ccc4ccc(-c5ccccc5)nc4c3)c3c(N)nccn32)C1	inactive
CNC(=O)c1cccc(-c2ccc3c(N4CCOC[C@@H]4C)nc(N4CCOC[C@@H]4C)nc3n2)c1	inactive
c1cc(OCCN2CCCCC2)cc(-c2n[nH]c3ccc(-c4nc[nH]n4)cc23)c1	inactive

Called result for COc1cc2ncnc(Nc3ccc(O)cc3)c2cc1OC
active

Called result for COc1cc(Nc2ncc(F)c(Nc3ccc4c(n3)N(COP(=O)(O)O)C(=O)C(C)(C)O4)n2)cc(OC)c1OC
inactive

---

study.system: UniProt:O75116
Sequence (O75116 whole entry): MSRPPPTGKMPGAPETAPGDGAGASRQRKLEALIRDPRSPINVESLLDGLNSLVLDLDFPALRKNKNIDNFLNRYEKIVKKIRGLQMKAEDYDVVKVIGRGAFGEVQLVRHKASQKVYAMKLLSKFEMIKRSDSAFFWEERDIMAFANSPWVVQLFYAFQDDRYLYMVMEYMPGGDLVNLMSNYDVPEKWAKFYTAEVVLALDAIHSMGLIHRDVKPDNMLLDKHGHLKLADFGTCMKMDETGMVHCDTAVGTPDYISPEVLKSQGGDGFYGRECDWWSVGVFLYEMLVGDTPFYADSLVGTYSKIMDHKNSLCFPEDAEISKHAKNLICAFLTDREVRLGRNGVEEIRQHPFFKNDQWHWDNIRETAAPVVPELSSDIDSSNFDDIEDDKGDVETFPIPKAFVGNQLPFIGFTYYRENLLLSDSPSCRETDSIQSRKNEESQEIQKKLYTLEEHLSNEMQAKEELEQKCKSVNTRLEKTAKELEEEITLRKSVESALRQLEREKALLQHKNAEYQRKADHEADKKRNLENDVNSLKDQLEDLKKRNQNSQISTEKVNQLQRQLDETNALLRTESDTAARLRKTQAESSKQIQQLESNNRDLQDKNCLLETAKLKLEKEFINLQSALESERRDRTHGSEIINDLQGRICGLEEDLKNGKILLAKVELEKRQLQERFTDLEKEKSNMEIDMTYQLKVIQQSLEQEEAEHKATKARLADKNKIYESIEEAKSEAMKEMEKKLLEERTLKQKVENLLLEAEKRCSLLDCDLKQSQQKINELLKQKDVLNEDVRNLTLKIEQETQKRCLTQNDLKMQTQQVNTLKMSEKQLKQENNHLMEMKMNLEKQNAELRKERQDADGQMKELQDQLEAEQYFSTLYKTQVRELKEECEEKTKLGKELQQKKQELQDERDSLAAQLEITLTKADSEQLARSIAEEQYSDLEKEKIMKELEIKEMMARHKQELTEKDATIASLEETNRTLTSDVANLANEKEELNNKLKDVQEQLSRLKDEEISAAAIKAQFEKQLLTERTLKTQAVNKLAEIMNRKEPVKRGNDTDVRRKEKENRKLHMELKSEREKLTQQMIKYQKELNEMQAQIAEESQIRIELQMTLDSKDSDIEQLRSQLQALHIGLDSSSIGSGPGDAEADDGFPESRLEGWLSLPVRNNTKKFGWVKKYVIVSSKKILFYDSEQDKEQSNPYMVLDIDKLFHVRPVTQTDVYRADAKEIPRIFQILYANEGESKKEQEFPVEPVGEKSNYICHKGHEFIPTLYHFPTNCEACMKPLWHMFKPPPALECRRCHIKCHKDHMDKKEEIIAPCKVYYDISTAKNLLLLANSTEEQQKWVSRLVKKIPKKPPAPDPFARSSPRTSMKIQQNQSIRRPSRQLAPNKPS
Activity calls are given as the source filed them.
Could you please pick one outcome from this set? t = active, f = inactive

O=C(NOC[C@H](O)CO)c1ccc(F)c(F)c1Nc1ccc(I)cc1F	f
O=S(=O)(c1cccc2cnccc12)N1CCCNCC1	t
CNC(=O)c1cccc(-c2ccc3c(N4CCOC[C@@H]4C)nc(N4CCOC[C@@H]4C)nc3n2)c1	f
C=CC(=O)Nc1cc(Nc2nccc(-c3cn(C)c4ccccc34)n2)c(OC)cc1N(C)CCN(C)C	f
CCN1CCN(Cc2ccc(Nc3ncc(F)c(-c4cc(F)c5nc(C)n(C(C)C)c5c4)n3)nc2)CC1	f
Cc1c(Cn2c(C)nc3c(C(=O)O)cc(N4CCOCC4)cc32)cccc1C(F)(F)F	f
COCCN1CCN(Cc2ccc(-c3n[nH]c4c3C(=O)c3c(NC(=O)NN5CCOCC5)cccc3-4)cc2)CC1	f
CN1CCN(c2nc(C3=C(c4c[nH]c5ccccc45)C(=O)NC3=O)c3ccccc3n2)CC1	f

Called result for N#CCNC(=O)c1ccc(-c2ccnc(Nc3ccc(N4CCOCC4)cc3)n2)cc1
t

Called result for NC[C@@](O)(c1ccc(Cl)cc1)c1ccc(-c2cn[nH]c2)cc1
t

Called result for COc1cc2nccc(Oc3ccc(NC(=O)C4(C(=O)Nc5ccc(F)cc5)CC4)cc3)c2cc1OC [CABOZANTINIB]
f

Called result for c1cc(OCCN2CCCCC2)cc(-c2n[nH]c3ccc(-c4nc[nH]n4)cc23)c1
f

Called result for O=C(Nc1ccc(OC(F)(F)F)cc1)c1sccc1NCc1ccnc2ccccc12
f

Called result for Cc1cc(C(=O)Nc2cc(Oc3ccc4nc(NC(=O)C5CC5)cn4n3)ccc2C)n(C)n1
f

---

study.system: BMP-2-inducible protein kinase (Homo sapiens, UniProt Q9NSY1); also: in the data inactive means no Kd found up to 30 µM
Sequence (Q9NSY1 whole entry): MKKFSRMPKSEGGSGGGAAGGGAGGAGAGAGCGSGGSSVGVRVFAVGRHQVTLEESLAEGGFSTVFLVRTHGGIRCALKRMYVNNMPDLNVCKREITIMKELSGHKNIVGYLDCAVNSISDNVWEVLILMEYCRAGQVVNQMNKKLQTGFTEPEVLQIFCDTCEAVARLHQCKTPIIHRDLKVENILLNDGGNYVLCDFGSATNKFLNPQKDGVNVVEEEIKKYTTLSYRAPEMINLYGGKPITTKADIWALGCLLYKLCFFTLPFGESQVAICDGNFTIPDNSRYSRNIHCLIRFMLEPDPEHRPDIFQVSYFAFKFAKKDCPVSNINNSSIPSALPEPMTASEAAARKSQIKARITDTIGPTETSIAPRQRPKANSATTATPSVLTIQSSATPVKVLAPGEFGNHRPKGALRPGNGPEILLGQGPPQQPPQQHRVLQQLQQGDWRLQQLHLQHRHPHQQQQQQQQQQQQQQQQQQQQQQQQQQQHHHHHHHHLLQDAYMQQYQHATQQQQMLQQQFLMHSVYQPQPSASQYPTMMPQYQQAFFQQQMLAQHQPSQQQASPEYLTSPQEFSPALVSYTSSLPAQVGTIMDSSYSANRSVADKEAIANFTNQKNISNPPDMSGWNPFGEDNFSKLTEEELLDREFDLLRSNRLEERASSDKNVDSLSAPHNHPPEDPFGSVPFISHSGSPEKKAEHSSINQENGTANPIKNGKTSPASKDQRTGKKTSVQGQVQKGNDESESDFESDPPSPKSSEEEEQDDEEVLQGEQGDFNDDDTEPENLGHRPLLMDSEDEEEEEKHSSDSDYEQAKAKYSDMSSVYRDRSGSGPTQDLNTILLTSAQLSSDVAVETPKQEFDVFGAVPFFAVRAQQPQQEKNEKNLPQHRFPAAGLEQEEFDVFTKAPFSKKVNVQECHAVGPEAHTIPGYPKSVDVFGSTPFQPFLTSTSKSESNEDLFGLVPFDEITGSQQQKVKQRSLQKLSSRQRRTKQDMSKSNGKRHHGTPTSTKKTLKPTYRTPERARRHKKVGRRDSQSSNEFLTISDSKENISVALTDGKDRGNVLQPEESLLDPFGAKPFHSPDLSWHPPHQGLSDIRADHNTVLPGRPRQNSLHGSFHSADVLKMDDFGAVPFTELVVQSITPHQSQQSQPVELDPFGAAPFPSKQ
Calls of active or inactive are those of the source.
Could you please pick one outcome from this set? t = active, f = inactive

Cc1cc(C(=O)Nc2cc(Oc3ccc4nc(NC(=O)C5CC5)cn4n3)ccc2C)n(C)n1 [TAK-593]	t
NC(=O)c1ccc(N(C(N)=O)c2c(F)cccc2F)nc1-c1ccc(F)cc1F [VX-702]	f
CNC(=O)c1cc(COc2nnc(Nc3ccc(Cl)cc3)c3ccoc23)ccn1 [TELATINIB]	f
COc1ccc(-c2ccc3ncc4c(c3c2)n(-c2ccc(N3CCNCC3)c(C(F)(F)F)c2)c(=O)n4C)cn1 [BGT-226 FREE BASE]	f
Cc1c(Cn2c(C)nc3c(C(=O)O)cc(N4CCOCC4)cc32)cccc1C(F)(F)F [GSK-2636771]	f

Pending molecule:
Called result for O[C@H]1CC[C@H](Nc2ncc3nc(Nc4c(F)cc(F)cc4F)n([C@H]4CCOC4)c3n2)CC1 [TANZISERTIB]
f
